The measured values listed here are drawn from patent US20110217265A1.

Listed here: items and their measured Cell Viability (%), alamar blue.
# Test system: Huh7.5 cells
# experimental.details: Alamar Blue cell viability assay
# Assay type: cell-based, human
# measurement.setup: 10 μM

{"compound": "CC(C)CN(C)c1nc(N)c(C(=O)Nc2ccon2)nc1Cl.Cl", "target.system": "Huh7.5 cells", "Cell Viability (%), alamar blue": 96}
{"compound": "Cc1cc(F)ncc1NC(=O)c1nc(Cl)c(N(C)CC(C)C)nc1N [ID 297, bis(2,2,2-trifluoroacetate)]", "target.system": "Huh7.5 cells", "Cell Viability (%), alamar blue": 67}
{"compound": "CC(C)CN(C)c1nc(N)c(C(=O)Nc2ccccc2)nc1Cl", "target.system": "Huh7.5 cells", "Cell Viability (%), alamar blue": 90}
{"compound": "CC(C)CN(C)c1nc(N)c(C(=O)Nc2cccnc2)nc1Cl.Cl", "target.system": "Huh7.5 cells", "Cell Viability (%), alamar blue": 43}
{"compound": "Cc1ccncc1NC(=O)c1cnc(N(C)CC(C)C)c(Cl)n1 [ID 473, 2,2,2-trifluoroacetate]", "target.system": "Huh7.5 cells", "Cell Viability (%), alamar blue": 95}
{"compound": "COc1cc(C)c(NC(=O)c2nc(Cl)c(N(C)CC(C)C)nc2N)cn1 [ID 294, bis(2,2,2-trifluoroacetate)]", "target.system": "Huh7.5 cells", "Cell Viability (%), alamar blue": 68}
{"compound": "CC(C)CN(C)c1nc(N)c(C(=O)NC2CCNCC2)nc1Cl.O=C(O)C(F)(F)F", "target.system": "Huh7.5 cells", "Cell Viability (%), alamar blue": 75}
{"compound": "Cc1ccncc1NC(=O)c1nc(Cl)c(N2CCCC2)nc1N [ID 420, 2,2,2-trifluoroacetate]", "target.system": "Huh7.5 cells", "Cell Viability (%), alamar blue": 72}
